Target desc: T1, HLA-DP402 (HLA-DPB1*04:02) (human, UniProt P20036 29-222)
T1 construct: mature; purified from homozygous EBV-transformed lymphoblastoid cells with antibody B7/21
Measurement protocol: competition ELISA vs biotin-Oxy 271-287;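 note: plates incubated 24–72 h, maximum binding defined by wells lacking competitor, background by wells lacking HLA molecule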
No end group written: not given here.
Measurement label: relative affinity
Answer with a number only.

Give relative affinity for KKMLQLVGVTAMFIA-NH2 [CCNB1 241-255] 35

Give relative affinity for LQLVGVTAMFIASKY-NH2 [CCNB1 244-258] 32

Give relative affinity for TAMFIASKYEEMYPP-NH2 [CCNB1 250-264] 1

Give relative affinity for ETMYMTVSIIDRFMQ-NH2 [CCNB1 221-235] 68

Give relative affinity for GNMRAILIDWLVQVQ-NH2 [CCNB1 199-213] 24

Give relative affinity for SQIAAGAFCLALKIL-NH2 [CCNB1 342-356] 25

Give relative affinity for DWLVQVQMKFRLLQE-NH2 [CCNB1 207-221] 171
